- Measured on: ecdysone receptor (Drosophila melanogaster, UniProt P34021)
- Construct: endogenous in cells
- Sequence (P34021 1-878): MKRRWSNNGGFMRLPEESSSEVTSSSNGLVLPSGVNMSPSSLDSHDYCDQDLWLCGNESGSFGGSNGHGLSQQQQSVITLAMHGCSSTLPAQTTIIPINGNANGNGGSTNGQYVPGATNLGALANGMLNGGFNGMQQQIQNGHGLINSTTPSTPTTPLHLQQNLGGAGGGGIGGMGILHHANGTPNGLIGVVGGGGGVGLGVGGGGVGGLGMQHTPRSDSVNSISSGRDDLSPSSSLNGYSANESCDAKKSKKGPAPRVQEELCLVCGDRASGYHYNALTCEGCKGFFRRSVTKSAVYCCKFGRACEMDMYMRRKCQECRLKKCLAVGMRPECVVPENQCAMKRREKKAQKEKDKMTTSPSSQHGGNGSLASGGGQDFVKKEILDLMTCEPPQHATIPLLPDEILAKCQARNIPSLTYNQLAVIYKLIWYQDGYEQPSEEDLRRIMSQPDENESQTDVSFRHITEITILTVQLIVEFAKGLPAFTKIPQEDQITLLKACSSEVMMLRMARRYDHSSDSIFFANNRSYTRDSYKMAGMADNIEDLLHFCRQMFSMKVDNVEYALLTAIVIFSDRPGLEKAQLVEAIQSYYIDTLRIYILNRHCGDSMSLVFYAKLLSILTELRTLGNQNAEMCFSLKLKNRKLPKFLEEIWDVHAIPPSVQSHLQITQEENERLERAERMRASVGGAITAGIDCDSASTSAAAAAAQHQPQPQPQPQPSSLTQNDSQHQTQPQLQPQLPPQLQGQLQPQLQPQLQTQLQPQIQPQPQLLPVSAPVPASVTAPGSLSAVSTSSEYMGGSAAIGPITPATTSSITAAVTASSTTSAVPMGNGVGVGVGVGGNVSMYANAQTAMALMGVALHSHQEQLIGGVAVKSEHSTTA
- Sequence (P20153 1-508 partner): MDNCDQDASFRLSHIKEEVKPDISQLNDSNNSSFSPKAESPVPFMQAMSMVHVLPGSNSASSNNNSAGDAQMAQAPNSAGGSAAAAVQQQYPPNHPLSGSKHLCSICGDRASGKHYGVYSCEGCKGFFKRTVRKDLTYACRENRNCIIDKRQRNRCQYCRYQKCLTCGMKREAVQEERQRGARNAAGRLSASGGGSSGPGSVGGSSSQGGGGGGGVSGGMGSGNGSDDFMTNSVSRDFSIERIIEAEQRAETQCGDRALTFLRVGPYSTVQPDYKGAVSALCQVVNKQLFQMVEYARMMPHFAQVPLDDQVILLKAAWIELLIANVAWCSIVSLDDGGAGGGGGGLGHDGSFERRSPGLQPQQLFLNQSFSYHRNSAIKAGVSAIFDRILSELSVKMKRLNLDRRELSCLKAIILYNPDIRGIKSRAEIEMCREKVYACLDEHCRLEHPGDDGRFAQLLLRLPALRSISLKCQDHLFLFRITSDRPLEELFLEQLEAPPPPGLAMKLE
- Protocol details: ^3H-ponasterone A binding to / displacement from Kr cell cytosolic receptor extracts
- Run parameters: Scatchard plot, in the absence of Example No. 3
Outcome measure: pKd
# pKd is unitless: minus log10 of the molar concentration; print number only

// pKd lookup, molecule = "CC(C)CC[C@@H](O)[C@](C)(O)[C@H]1CC[C@@]2(O)C3=CC(=O)[C@@H]4C[C@@H](O)[C@@H](O)C[C@]4(C)[C@H]3CC[C@]12C" , result: 9.54
